# Tested on: panel of cancer cell lines
# protocol-summary: Cell viability (CellTiter-Glo) dose-response across cancer cell line panel;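 note: after 72 h compound incubation with CellTiter-Glo ATP readout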
# Assay type: cell-based, human
# condition-parameters: Homo sapiens, LIM2099 cells
# Procedure: Next, we explored the effect of CSN5 inhibition on the viability of cancer cells. […] A standardized CellTiter-Glo Assay (Promega #G7570) based on the quantification of ATP was applied according to the manufacturer's protocol to measure the amount of viable cells in culture. […] EC50 values were calculated from the plot of percentage of inhibition versus inhibitor concentration using the nonlinear regression analysis software Origin 7.5SR6 (OriginLab Corp.).
measurement-name: EC50 (µM)
Could you give me the number in µM? Just the number is fine.

Q: Requested field: EC50. Item: COCc1ccccc1NCc1ccc([C@@H]2[C@H](O)CCCc3cncn32)c(-c2ccccc2Cl)c1
Result: 11.4

* * *

# Tested on: panel of cancer cell lines
# protocol-summary: Cell viability (CellTiter-Glo) dose-response across cancer cell line panel;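 note: after 72 h compound incubation with CellTiter-Glo ATP readout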
# Assay type: cell-based, human
# condition-parameters: Homo sapiens, MFM-223, MFM223
I'd appreciate it if you could supply pEC50 values for the items below.
Quick note: pEC50 values are minus log10 of concentrations in mol/L.

Q: Requested field: pEC50. Item: NS(=O)(=O)OC[C@@H]1C[C@@H](n2ccc3c(N[C@H]4CCc5ccccc54)ncnc32)C[C@@H]1O
Result: 6.98

Q: Likewise for COCc1ccccc1NCc1ccc([C@H]2[C@@H](O)CCCc3cncn32)c(-c2ccccc2Cl)c1 ?
Result: 6.11

* * *

# System: panel of cancer cell lines
# protocol-summary: Cell viability (CellTiter-Glo) dose-response across cancer cell line panel;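 note: after 72 h compound incubation with CellTiter-Glo ATP readout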
# Type: cell-based, human
# condition-parameters: Homo sapiens, ABC-1, ABC-1
I'd appreciate it if you could supply pEC50 values for the items below.
Quick note: pEC50 values are minus log10 of concentrations in mol/L.

Q: Requested field: pEC50. Item: COCc1ccccc1NCc1ccc([C@H]2[C@@H](O)CCCc3cncn32)c(-c2ccccc2Cl)c1 [CSN5i-2]
Result: 6.31

Q: Likewise for CC(C)C[C@H](NC(=O)[C@H](Cc1ccccc1)NC(=O)c1cnccn1)B(O)O [Bortezomib] ?
Result: 8.52

* * *

# protocol-summary: Pharmacokinetics in mice (single i.v. and oral dose)
# condition-parameters: mouse, in vivo; mice (n=3), single i.v. 1 mg per kg and single oral 3 mg per kg dose; read-out: Cl (clearance)
measurement-name: clearance (mL/min/kg)
Could you give me the number in mL/min/kg? Just the number is fine.

Q: Requested field: clearance. Item: COCc1ccccc1NCc1ccc([C@H]2[C@@H](O)CCCc3cncn32)c(-c2ccccc2Cl)c1
Result: 82

Q: Likewise for CC(C)n1nc(C(F)F)cc1C(=O)Nc1ccc([C@H]2[C@@H](O)CCCc3cncn32)c(-c2ccccc2)c1 ?
Result: 36

* * *

# Tested on: panel of cancer cell lines
# protocol-summary: Cell viability (CellTiter-Glo) dose-response across cancer cell line panel;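 note: after 72 h compound incubation with CellTiter-Glo ATP readout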
# Format: cell-based, human
# condition-parameters: Homo sapiens, KU812, KU812
measurement-name: EC50 (nM)
Could you give me the number in nM? Just the number is fine.

Q: Requested field: EC50. Item: CC(C)C[C@H](NC(=O)[C@H](Cc1ccccc1)NC(=O)c1cnccn1)B(O)O
Result: 4

* * *

# Tested on: panel of cancer cell lines
# protocol-summary: Cell viability (CellTiter-Glo) dose-response across cancer cell line panel;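 note: after 72 h compound incubation with CellTiter-Glo ATP readout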
# Assay type: cell-based, human
# condition-parameters: Homo sapiens, PaTu 8988s, PA-TU-8988S cells
measurement-name: pEC50
Quick note: pEC50 values are minus log10 of concentrations in mol/L.

Q: Requested field: pEC50. Item: COCc1ccccc1NCc1ccc([C@@H]2[C@H](O)CCCc3cncn32)c(-c2ccccc2Cl)c1 [CSN5i-2e]
Result: 4.58

* * *

# target-under-test: human MMP12 (Homo sapiens, UniProt P39900)
# Sequence (P39900 101-268): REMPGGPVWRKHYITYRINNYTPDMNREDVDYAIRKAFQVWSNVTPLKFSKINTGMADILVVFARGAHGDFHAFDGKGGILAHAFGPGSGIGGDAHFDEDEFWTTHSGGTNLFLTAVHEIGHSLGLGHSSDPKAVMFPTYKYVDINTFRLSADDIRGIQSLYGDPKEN
measurement-name: IC50

Q: Requested field: IC50. Item: COCc1ccccc1NCc1ccc([C@H]2[C@@H](O)CCCc3cncn32)c(-c2ccccc2Cl)c1 [CSN5i-2]
Result: > 100 µM

Q: Likewise for CC(C)n1nc(C(F)F)cc1C(=O)Nc1ccc([C@H]2[C@@H](O)CCCc3cncn32)c(-c2ccccc2)c1 [CSN5i-3] ?
Result: > 100 µM

* * *

# Test system: panel of cancer cell lines
# protocol-summary: Cell viability (CellTiter-Glo) dose-response across cancer cell line panel;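 note: after 72 h compound incubation with CellTiter-Glo ATP readout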
# Format: cell-based, human
# condition-parameters: Homo sapiens, LIM2550 cells
measurement-name: EC50 (µM)
Could you give me the number in µM? Just the number is fine.

Q: Requested field: EC50. Item: COCc1ccccc1NCc1ccc([C@@H]2[C@H](O)CCCc3cncn32)c(-c2ccccc2Cl)c1 [CSN5i-2e]
Result: 6.3

* * *

# System: panel of cancer cell lines
# protocol-summary: Cell viability (CellTiter-Glo) dose-response across cancer cell line panel;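 note: after 72 h compound incubation with CellTiter-Glo ATP readout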
# Type: cell-based, human
# condition-parameters: Homo sapiens, SK-MEL3, SK-MEL-3 cells
measurement-name: pEC50
Quick note: pEC50 values are minus log10 of concentrations in mol/L.

Q: Requested field: pEC50. Item: COCc1ccccc1NCc1ccc([C@@H]2[C@H](O)CCCc3cncn32)c(-c2ccccc2Cl)c1 [CSN5i-2e]
Result: 4.99

* * *

# System: panel of cancer cell lines
# protocol-summary: Cell viability (CellTiter-Glo) dose-response across cancer cell line panel;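 note: after 72 h compound incubation with CellTiter-Glo ATP readout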
# Format: cell-based, human
# condition-parameters: Homo sapiens, CAL-148, CAL-148
measurement-name: pEC50
Quick note: pEC50 values are minus log10 of concentrations in mol/L.

Q: Requested field: pEC50. Item: COCc1ccccc1NCc1ccc([C@H]2[C@@H](O)CCCc3cncn32)c(-c2ccccc2Cl)c1 [CSN5i-2]
Result: 5.77

* * *

# Tested on: panel of cancer cell lines
# protocol-summary: Cell viability (CellTiter-Glo) dose-response across cancer cell line panel;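 note: after 72 h compound incubation with CellTiter-Glo ATP readout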
# Assay type: cell-based, human
# condition-parameters: Homo sapiens, PK-1, PK-1
measurement-name: pEC50
Quick note: pEC50 values are minus log10 of concentrations in mol/L.

Q: Requested field: pEC50. Item: NS(=O)(=O)OC[C@@H]1C[C@@H](n2ccc3c(N[C@H]4CCc5ccccc54)ncnc32)C[C@@H]1O
Result: 5.86

Q: Likewise for COCc1ccccc1NCc1ccc([C@H]2[C@@H](O)CCCc3cncn32)c(-c2ccccc2Cl)c1 ?
Result: 5.57

* * *

# Tested on: panel of cancer cell lines
# protocol-summary: Cell viability (CellTiter-Glo) dose-response across cancer cell line panel;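 note: after 72 h compound incubation with CellTiter-Glo ATP readout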
# Type: cell-based, human
# condition-parameters: Homo sapiens, HLE
I'd appreciate it if you could supply pEC50 values for the items below.
Quick note: pEC50 values are minus log10 of concentrations in mol/L.

Q: Requested field: pEC50. Item: NS(=O)(=O)OC[C@@H]1C[C@@H](n2ccc3c(N[C@H]4CCc5ccccc54)ncnc32)C[C@@H]1O
Result: 6.34

Q: Likewise for COCc1ccccc1NCc1ccc([C@H]2[C@@H](O)CCCc3cncn32)c(-c2ccccc2Cl)c1 ?
Result: 5.87

* * *

# Test system: panel of cancer cell lines
# protocol-summary: Cell viability (CellTiter-Glo) dose-response across cancer cell line panel;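 note: after 72 h compound incubation with CellTiter-Glo ATP readout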
# Format: cell-based, human
# condition-parameters: Homo sapiens, Panc1005, cell line Panc 10.05
measurement-name: EC50

Q: Requested field: EC50. Item: CC(C)C[C@H](NC(=O)[C@H](Cc1ccccc1)NC(=O)c1cnccn1)B(O)O
Result: 5.21 nM

* * *

# System: panel of cancer cell lines
# protocol-summary: Cell viability (CellTiter-Glo) dose-response across cancer cell line panel;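 note: after 72 h compound incubation with CellTiter-Glo ATP readout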
# Type: cell-based, human
# condition-parameters: Homo sapiens, MDA-MB-453, MDA-MB-453 cells
measurement-name: EC50 (µM)
Could you give me the number in µM? Just the number is fine.

Q: Requested field: EC50. Item: COCc1ccccc1NCc1ccc([C@@H]2[C@H](O)CCCc3cncn32)c(-c2ccccc2Cl)c1 [CSN5i-2e]
Result: 6.48

* * *

# Test system: panel of cancer cell lines
# protocol-summary: Cell viability (CellTiter-Glo) dose-response across cancer cell line panel;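 note: after 72 h compound incubation with CellTiter-Glo ATP readout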
# Assay type: cell-based, human
# condition-parameters: Homo sapiens, HT-1376, HT-1376
measurement-name: pEC50
Quick note: pEC50 values are minus log10 of concentrations in mol/L.

Q: Param readout = pEC50; param system = panel of cancer cell lines; param query = CC(C)C[C@H](NC(=O)[C@H](Cc1ccccc1)NC(=O)c1cnccn1)B(O)O ; response: value
Result: 7.74

* * *

# System: panel of cancer cell lines
# protocol-summary: Cell viability (CellTiter-Glo) dose-response across cancer cell line panel;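 note: after 72 h compound incubation with CellTiter-Glo ATP readout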
# Format: cell-based, human
# condition-parameters: Homo sapiens, MDA-MB-231, MDA-MB-231 cells
measurement-name: EC50 (µM)
Could you give me the number in µM? Just the number is fine.

Q: Param readout = EC50; param system = panel of cancer cell lines; param query = COCc1ccccc1NCc1ccc([C@@H]2[C@H](O)CCCc3cncn32)c(-c2ccccc2Cl)c1 [CSN5i-2e] ; response: value
Result: 15.3

* * *

# System: panel of cancer cell lines
# protocol-summary: Cell viability (CellTiter-Glo) dose-response across cancer cell line panel;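 note: after 72 h compound incubation with CellTiter-Glo ATP readout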
# Format: cell-based, human
# condition-parameters: Homo sapiens, Hs766T, Hs 766T cells
measurement-name: EC50 (µM)
Could you give me the number in µM? Just the number is fine.

Q: Requested field: EC50. Item: COCc1ccccc1NCc1ccc([C@@H]2[C@H](O)CCCc3cncn32)c(-c2ccccc2Cl)c1
Result: 24.2
